# Measured on: L-lactate dehydrogenase (Plasmodium falciparum (isolate CDC / Honduras))
# Assay comment: PfLDH activity inhibition – cell lysate, 3D7 strain, counter-screen for P. falciparum growth inhibition project (AID 2304);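 also: 0% = vehicle and 100% = reference inhibitor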
# Protocol conditions: P. falciparum 3D7 crude extract, LDH APAD/NBT absorbance; at 2 µM; stronger effect = higher value
Experimental endpoint: inhibition (%)
Numbers only, in %.

{"Molecule": "CN(C)CCC1CCCc2ccc(NC(=O)Nc3ccc(-c4ccncc4)c4ccccc34)cc21 (centres undefined)", "Measured on": "L-lactate dehydrogenase (Plasmodium falciparum (isolate CDC / Honduras))", "inhibition (%)": 6}
{"Molecule": "CN1CCc2ccc(NC(=O)Nc3cccc(C(=O)c4ccccc4)c3)cc2C1", "Measured on": "L-lactate dehydrogenase (Plasmodium falciparum (isolate CDC / Honduras))", "inhibition (%)": -1}
{"Molecule": "Cc1onc(-c2ccccc2Cl)c1C(=O)Nc1cc(Cl)c(Cl)cc1Cl", "Measured on": "L-lactate dehydrogenase (Plasmodium falciparum (isolate CDC / Honduras))", "inhibition (%)": 7}

Below are some molecules; for each one, tell me its inhibition.
1. COc1ccc(CN2CCC(CNCC(c3ccccc3)c3ccccc3)CC2)cc1
2. C=C[C@]1(C)C[C@@H](OC(=O)c2n[nH]c3ccccc3c2=O)[C@]2(C)[C@H](C)CC[C@]3(CCC(=O)[C@H]32)[C@@H](C)[C@@H]1O
3. COCCN1CCN(Cc2ccc(-c3ccc(-c4nc5c(C)cccc5[nH]4)s3)cc2)CC1
4. CS(=O)(=O)c1ccccc1CNC(=O)c1ccc(-c2ccc(-c3nc4ccc(C(F)(F)F)cc4[nH]3)s2)cc1
5. Cc1cc(N(C)CCN(C)C)nc(Nc2ccc(Cl)cc2)n1

OUT:
1: -4; 2: 0; 3: -2; 4: 9; 5: -3

IN: Item under review: `CC(C)CCN1CCC(Oc2ccc(NC(=O)c3ccccc3)cc2Cl)CC1` . Reported inhibition?
OUT: 5

----------
Kindly supply the reported inhibition values for the records listed here.
# Assay comment: HepG2 cytotoxicity, primary screen, cytotoxicity control for P. falciparum antimalarial project, cell-based, ATP luminescence (AID 2303);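 also: 0% = DMSO wells and 100% = digitonin-killed cells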
# Protocol conditions: HepG2 viability, 24-48 h, at 10 µM, stronger effect = higher value
Give bare numbers, in %.

# map each molecule to its inhibition
1. O=C(NC1CCN(Cc2ccccc2O)C1)c1cccc(C(F)(F)F)c1 (centres undefined)
2. O=C(Nc1cccc(CN2CCCN(CC3CCCCC3)CC2)c1)c1cc2ccccc2s1
3. O=C(NC1CCN(c2ccnc3cc(Cl)ccc23)C1)c1ccc(F)cc1F (centres undefined)
4. CN1CCCC(CN2CCN(Cc3ccc(-c4ccc(-c5nc6ccc(F)cc6[nH]5)s4)cc3)CC2)C1 (centres undefined)
5. CC(C)CCCC(C)(C)NC[C@@H](O)[C@H](Cc1ccccc1)NC(=O)c1cc(NC(C)C)cc(N2CCCCS2(=O)=O)c1F
6. COc1ccc(-c2ccc(NC(=O)c3ccc(Cl)cc3)cc2)cc1CN(C)CCO

OUT:
1: -4; 2: 29; 3: 31; 4: 73; 5: 11; 6: 43

Respectfully, I request inhibition for each entry included below.
1. CC[C@@H]([C@@H](Cc1cc2ccccc2s1)C(=O)N[C@@H](CCCCNC(=O)OCc1ccccc1)C(=O)Nc1ccccn1)N(O)C=O
2. CCOC(=O)c1ccc(-n2c(C)cc(C=C3SC(=Nc4ccccc4)N(C4CCCC4)C3=O)c2C)cc1
3. CN(C)CCCOc1cccc(NC(=O)Nc2ccc(-c3ccccc3)cc2)c1
4. CC(=O)Nc1ccc(C(=O)Nc2cccc(-c3cccc(-c4nc5ccccc5[nH]4)c3)c2)cn1
5. O=C(/C=C/c1ccc(Cl)c(Cl)c1)NCCCCCN1CCC(c2cn[nH]c2-c2ccccc2)CC1
6. CC1(C)N=C(N)N=C(N)N1c1ccc(Oc2ccc(Cl)cc2)c(Cl)c1
7. COc1ccc(CNCCCCCCNCc2ccc(OC)c3ccccc23)c2ccccc12
8. Cc1cc(C)cc(Oc2c(C(F)(F)F)oc3c(CN4CC(C)OC(C)C4)c(O)ccc3c2=O)c1 (centres undefined)

OUT:
1. 36
2. 2
3. 9
4. 3
5. 28
6. 13
7. 100
8. 5

List the reported inhibition of each molecule below.
1. O=C(Nc1ccc(N2CCN(c3ncccc3C(F)(F)F)CC2)nc1)c1cccs1
2. Fc1ccc2nc(-c3ccc(-c4ccc(CN5CCCCC5)cc4)s3)[nH]c2c1
3. O=C(Nc1ccc(Cl)cc1Cl)N[C@H]1CCN(CCCCCNC(=O)[C@@H]2C[C@H]2c2ccc(Cl)c(Cl)c2)C1

OUT:
1: 7; 2: 42; 3: 37

// for each molecule below, give its inhibition
1. CC(C)C(=O)NC(c1cccs1)c1cc(Cl)c2cccnc2c1O (centres undefined)
2. C#CCNCc1ccc(-c2cccc(-c3nc4c(C)cccc4[nH]3)c2)cc1

OUT:
1: 23; 2: -4

Numbers sourced from PubChem BioAssay.
